Source: patent US7838548B2

# system: human TLR2 (Homo sapiens, UniProt O60603)
# Construct: expressed in transfected cells
# Sequence (O60603 21-784): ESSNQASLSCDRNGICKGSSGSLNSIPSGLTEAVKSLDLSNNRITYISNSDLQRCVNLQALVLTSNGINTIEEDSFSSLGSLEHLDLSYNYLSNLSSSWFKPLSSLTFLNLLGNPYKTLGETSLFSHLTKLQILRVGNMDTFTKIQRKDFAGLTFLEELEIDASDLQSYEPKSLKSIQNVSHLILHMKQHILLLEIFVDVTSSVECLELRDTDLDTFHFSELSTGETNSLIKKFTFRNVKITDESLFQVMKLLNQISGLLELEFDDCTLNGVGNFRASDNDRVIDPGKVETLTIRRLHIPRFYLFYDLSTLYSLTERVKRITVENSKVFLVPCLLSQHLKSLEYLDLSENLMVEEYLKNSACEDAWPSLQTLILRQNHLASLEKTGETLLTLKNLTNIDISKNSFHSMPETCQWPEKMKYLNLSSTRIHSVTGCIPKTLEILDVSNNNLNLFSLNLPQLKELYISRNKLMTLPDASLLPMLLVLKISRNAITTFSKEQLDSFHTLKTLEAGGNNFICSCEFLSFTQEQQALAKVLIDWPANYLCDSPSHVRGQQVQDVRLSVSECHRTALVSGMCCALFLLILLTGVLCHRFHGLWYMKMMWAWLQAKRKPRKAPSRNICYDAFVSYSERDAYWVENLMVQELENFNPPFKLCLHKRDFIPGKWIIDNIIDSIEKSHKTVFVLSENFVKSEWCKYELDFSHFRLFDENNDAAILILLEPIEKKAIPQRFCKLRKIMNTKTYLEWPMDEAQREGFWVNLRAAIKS
# assay.overview: TLR2 antagonism assay, HEK-TLR2-ELAM luciferase reporter cells stimulated with Pam3CSK4
# Format: cell-based
# test.parameters: Table 6, 0.2 ng/mL Pam3CSK4, 18 hours, ELAM-luciferase reporter
parameter: pIC50
One number for each entry, as −log10 of the molar value.

Solved entries (count: 5):
compound | parameter | reported.measurement
CCCCCCCCCCCCCCCC(=O)N[C@@H](COP(=O)(O)OCCNC(=O)[C@@H](NC(=O)Cc1c[nH]c2ccccc12)[C@@H](C)CC)C(=O)NCCCOC(=O)CCCCCCCCCCC | pIC50 | 6.36
CCCCCCCCCCCCCCCCCCCC(=O)N[C@@H](COP(=O)(O)OCCNC(=O)[C@@H](NC(=O)Cc1c[nH]c2ccccc12)[C@@H](C)CC)C(=O)NCCC(O)CCCCCCCCCC (mixture of isomers) | pIC50 | 6.19
CCCCCCCCCCCCCCCC(=O)OC[C@H](CNC(=O)[C@H](COP(=O)(O)OCCNC(=O)[C@@H](NC(=O)Cc1c[nH]c2ccc(OCc3ccccc3)cc12)[C@@H](C)CC)NC(C)=O)OC(=O)CCCCCCCCCCCCCCC | pIC50 | 6.37
CCCCCCCCCCCCCCCC(=O)OC[C@H](CNC(=O)[C@@H](COP(=O)(O)OCCNC(=O)[C@@H](NC(=O)Cc1c[nH]c2ccc(OCc3ccccc3)cc12)[C@@H](C)CC)NC(C)=O)OC(=O)CCCCCCCCCCCCCCC | pIC50 | 6.30
CCCCCCCCCCCCCCCC(=O)N[C@@H](COP(=O)(O)OCCNC(=O)[C@@H](NC(=O)Cc1c[nH]c2ccc(Br)cc12)[C@@H](C)CC)C(=O)NCCCOC(=O)CCCCCCCCCCC | pIC50 | 6.12

Give pIC50 for each listed item.
1. CCCCCCCCCCCCCCCC(=O)OCCCNC(=O)C(COP(=O)(O)OCCNC(=O)[C@@H](NC(=O)Cc1c[nH]c2ccccc12)[C@@H](C)CC)NC(=O)CCCCCCCCCCC (stereo partly shown)
2. CCCCCCCCCCCCCCCCCCCC(=O)N[C@@H](COP(=O)(O)OCCNC(=O)[C@@H](NC(=O)Cc1c[nH]c2ccc(OCc3ccccc3)cc12)C(C)C)C(=O)NCCC(O)CCCCCCCCCCCCC (mixture of isomers)

1: 6.41; 2: 6.11

* * *

# system: TLR4 (Homo sapiens, UniProt O00206)
# Sequence (O00206 24-839): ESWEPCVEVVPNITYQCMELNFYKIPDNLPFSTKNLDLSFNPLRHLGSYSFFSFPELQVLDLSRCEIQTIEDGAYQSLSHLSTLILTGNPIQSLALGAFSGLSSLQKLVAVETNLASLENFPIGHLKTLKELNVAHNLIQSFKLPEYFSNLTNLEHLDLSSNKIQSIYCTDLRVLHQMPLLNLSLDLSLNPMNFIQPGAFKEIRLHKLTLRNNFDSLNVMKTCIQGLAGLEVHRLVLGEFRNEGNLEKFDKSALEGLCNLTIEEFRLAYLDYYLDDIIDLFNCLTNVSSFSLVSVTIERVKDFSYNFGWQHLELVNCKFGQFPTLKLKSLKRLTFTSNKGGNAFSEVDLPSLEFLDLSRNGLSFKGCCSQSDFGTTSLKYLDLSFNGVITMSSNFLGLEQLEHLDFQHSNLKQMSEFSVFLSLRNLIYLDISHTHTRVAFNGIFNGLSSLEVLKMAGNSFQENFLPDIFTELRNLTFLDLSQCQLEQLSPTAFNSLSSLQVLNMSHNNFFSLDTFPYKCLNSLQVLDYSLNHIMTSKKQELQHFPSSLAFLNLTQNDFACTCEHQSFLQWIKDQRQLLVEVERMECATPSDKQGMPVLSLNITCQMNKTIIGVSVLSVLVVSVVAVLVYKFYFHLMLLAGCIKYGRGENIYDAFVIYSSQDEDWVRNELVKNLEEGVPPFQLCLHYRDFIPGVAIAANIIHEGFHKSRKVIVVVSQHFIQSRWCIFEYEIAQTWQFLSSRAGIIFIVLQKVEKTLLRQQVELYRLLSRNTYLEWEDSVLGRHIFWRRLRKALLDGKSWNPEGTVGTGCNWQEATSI
# Sequence (Q9Y6Y9 17-160 partner limits assumed): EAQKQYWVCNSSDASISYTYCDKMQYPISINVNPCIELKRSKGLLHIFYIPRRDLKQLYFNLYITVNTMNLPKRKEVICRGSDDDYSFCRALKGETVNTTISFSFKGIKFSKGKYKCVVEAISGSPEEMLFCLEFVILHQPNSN
# assay.overview: TLR4 antagonism assay, HEK-TLR4-MD2-ELAM luciferase reporter cells stimulated with LPS plus soluble CD14
# test.parameters: Table 6, 10 ng/mL LPS plus 10 nM soluble CD14, 18 hours
Assignment: determine reported log10 of IC50 for the given compounds.
Use the decimal logarithm of IC50 (nM).

compound | log10 of IC50
CCCCCCCCCCCCCCCCCCCC(=O)N[C@@H](COP(=O)(O)OCCNC(=O)[C@@H](NC(=O)Cc1c[nH]c2ccccc12)[C@@H](C)CC)C(=O)NCCC(O)CCCCCCCCCC (mixture of isomers) | 3.26
CCCCCCCCCCCCCCCCCCCC(=O)N[C@@H](COP(=O)(O)OCCNC(=O)[C@@H](NC(=O)Cc1c[nH]c2ccccc12)[C@@H](C)CC)C(=O)NCCC(O)CCCCCCCCCCCCC (mixture of isomers) | 4.09
CCCCCCCCCCCCCCCC(=O)OCCCNC(=O)C(COP(=O)(O)OCCNC(=O)[C@@H](NC(=O)Cc1c[nH]c2ccccc12)[C@@H](C)CC)NC(=O)CCCCCCCCCCC (stereo partly shown) | 3.00
CCCCCCCCCCCCCCCC(=O)N[C@@H](COP(=O)(O)OCCNC(=O)[C@@H](NC(=O)Cc1c[nH]c2ccc(-c3ccccc3)cc12)[C@@H](C)CC)C(=O)NCCCOC(=O)CCCCCCCCCCC | 2.30
CCCCCCCCCCCCCCCCCCCC(=O)N[C@@H](COP(=O)(O)OCCNC(=O)[C@@H](NC(=O)Cc1c[nH]c2ccc(OCc3ccccc3)cc12)C(C)C)C(=O)NCCC(O)CCCCCCCCCCCCC (mixture of isomers) | 3.56
CCCCCCCCCCCCCCCC(=O)N[C@@H](COP(=O)(O)OCCNC(=O)[C@@H](NC(=O)Cc1c[nH]c2ccc(Br)cc12)[C@@H](C)CC)C(=O)NCCCOC(=O)CCCCCCCCCCC | 2.60
CCCCCCCCCCCCCCCC(=O)OC[C@H](CNC(=O)[C@H](COP(=O)(O)OCCNC(=O)[C@@H](NC(=O)Cc1c[nH]c2ccc(OCc3ccccc3)cc12)[C@@H](C)CC)NC(C)=O)OC(=O)CCCCCCCCCCCCCCC | 3.53
CCCCCCCCCCCCCCCC(=O)OC[C@H](CNC(=O)[C@@H](COP(=O)(O)OCCNC(=O)[C@@H](NC(=O)Cc1c[nH]c2ccc(OCc3ccccc3)cc12)[C@@H](C)CC)NC(C)=O)OC(=O)CCCCCCCCCCCCCCC | 3.26
CCCCCCCCCCCCCCCC(=O)N[C@@H](COP(=O)(O)OCCNC(=O)[C@@H](NC(=O)Cc1c[nH]c2ccccc12)[C@@H](C)CC)C(=O)NCCCOC(=O)CCCCCCCCCCC | 2.85

Now consider the entry below.
// field: log10 of IC50; key: CCCCCCCCCCCCCCCCCCCC(=O)N[C@@H](COP(=O)(O)OCCNC(=O)[C@@H](NC(=O)Cc1c[nH]c2ccc(OCc3ccccc3)cc12)[C@@H](C)CC)C(=O)NCCC(O)CCCCCCCCCCCCC (mixture of isomers) ; value = 3.82
